Tested on: pancreatic cancer cells (BxPC3)
Experiment description: In vitro cytotoxicity, CellTiter-Glo 96 h, BxPC3
Measurement context: Homo sapiens, BXPC-3, read-out: Cytotoxic potency (IC50 class), BxPC3
pIC50: −log10 of the molar value.
Measured pIC50, listed per entry.
Endpoint: pIC50

> print(dat)
                        structure.as.smiles  endpoint  assay.result
1  CC[C@@]1(O)C(=O)OCc2c1cc1n(c2=O)Cc2c-1nc1cc3c(cc1c2CNC(=O)[C@@H](N)CCC(=O)O)OCO3     pIC50  6.00 to 7.00
2  CC[C@@]1(O)C(=O)OCc2c1cc1n(c2=O)Cc2c-1nc1cc3c(cc1c2CNc1ccc(F)cc1)OCO3     pIC50  8.00 to 9.00
3  CC[C@@]1(O)C(=O)OCc2c1cc1n(c2=O)Cc2c-1nc1cc3c(cc1c2CNCC1CCNCC1)OCO3     pIC50  7.00 to 8.00
4  CC[C@@]1(O)C(=O)OCc2c1cc1n(c2=O)Cc2c-1nc1cc(F)c(C)c3c1c2[C@@H](NC(=O)CO)CC3     pIC50  7.00 to 8.00
5  CC[C@@]1(O)C(=O)OCc2c1cc1n(c2=O)Cc2c-1nc1cc3c(cc1c2C1CCCCCC1)OCO3     pIC50  8.00 to 9.00
6  CC[C@@]1(O)C(=O)OCc2c1cc1n(c2=O)Cc2c-1nc1cc3c(cc1c2CNc1ccccc1)OCO3     pIC50  8.00 to 9.00
7  CC[C@@]1(O)C(=O)OCc2c1cc1n(c2=O)Cc2c-1nc1cc3c(cc1c2CNC12CC4CC(CC(C4)C1)C2)OCO3     pIC50  7.00 to 8.00

====

Collected pIC50 values appear next to each entry.
Tested on: Burkitt's lymphoma cells (Ramos)
Experiment description: In vitro cytotoxicity, CellTiter-Glo 96 h, Ramos
Measurement context: Homo sapiens, read-out: Cytotoxic potency as free drug, IC50, Ramos
pIC50: −log10 of the molar value.
Endpoint: pIC50

> print(dat)
                                    compound   assay.result
 1  CC[C@@]1(O)C(=O)OCc2c1cc1n(c2=O)Cc2c-1nc1cc3c(cc1c2CNC(=O)[C@@H](N)CCC(=O)O)OCO3 [Compound 4e]   6.00 to 7.00
 2  CCc1c2c(nc3ccc(O)cc13)-c1cc3c(c(=O)n1C2)COC(=O)[C@]3(O)CC [Compound 8d]   7.00 to 8.00
 3  CC[C@@]1(O)C(=O)OCc2c1cc1n(c2=O)Cc2c-1nc1cc3c(cc1c2CNc1ccc(F)cc1)OCO3 [Compound 5r]   8.00 to 9.00
 4  CC[C@@]1(O)C(=O)OCc2c1cc1n(c2=O)Cc2c-1nc1cc3c(cc1c2CNCCN(C)CCO)OCO3 [Compound 5w]   8.00 to 9.00
 5  CC[C@@]1(O)C(=O)OCc2c1cc1n(c2=O)Cc2c-1nc1cc3c(cc1c2CNC(=O)CCN)OCO3 [Compound 4d]   7.00 to 8.00
 6  CC[C@@]1(O)C(=O)OCc2c1cc1n(c2=O)Cc2c-1nc1cc3c(cc1c2CN1CCOCC1)OCO3 [Compound 5g]  9.00 to 10.00
 7  CC[C@@]1(O)C(=O)OCc2c1cc1n(c2=O)Cc2c-1nc1cc3c(cc1c2CNC)OCO3 [Compound 5]   8.00 to 9.00
 8  CC[C@@]1(O)C(=O)OCc2c1cc1n(c2=O)Cc2c-1nc1cc3c(cc1c2CNCc1ccc(N)cc1)OCO3 [Compound 5e]   8.00 to 9.00
 9  CCc1c2c(nc3cc4c(cc13)OCO4)-c1cc3c(c(=O)n1C2)COC(=O)[C@]3(O)CC [Compound 6e]  9.00 to 10.00
10  CC[C@@]1(O)C(=O)OCc2c1cc1n(c2=O)Cc2c-1nc1cc3c(cc1c2CN1CCN(C)CC1)OCO3 [Compound 5h]   8.00 to 9.00
11  CC[C@@]1(O)C(=O)OCc2c1cc1n(c2=O)Cc2c-1nc1cc3c(cc1c2CN(C)CCNC)OCO3 [Compound 5x]   7.00 to 8.00
12  CCC(CC)Cc1c2c(nc3cc4c(cc13)OCO4)-c1cc3c(c(=O)n1C2)COC(=O)[C@]3(O)CC [Compound 6g]  9.00 to 10.00
13  CC[C@@]1(O)C(=O)OCc2c1cc1n(c2=O)Cc2c-1nc1cc3c(cc1c2CNCC(C)C)OCO3 [Compound 5i]   8.00 to 9.00
14  CCNCc1c2c(nc3cc4c(cc13)OCO4)-c1cc3c(c(=O)n1C2)COC(=O)[C@]3(O)CC [Compound 5a]   8.00 to 9.00
15  CC[C@@]1(O)C(=O)OCc2c1cc1n(c2=O)Cc2c-1nc1cc3c(cc1c2CNc1ccccc1)OCO3 [Compound 5b]  9.00 to 10.00
